// data source = ChEMBL document CHEMBL1201862

system: LOX IMVI; assay: NCI tumour cell line growth inhibition, 48 h
Calls of active or inactive are those of the source. Rule as the data show it: active = GI50 up to about 1.1 µM and inactive = higher.
Please provide measured GI50 for the entries that follow.

**Q:** # get_value(readout='GI50', item= O=C1OCc2c1cc1ccc(O)c(OC3OC(CO)C(O)C(O)C3O)c1c2-c1ccc2c(c1)OCO2 (stereo not drawn) )
**A:** 86.7 µM (inactive)

**Q:** Quick check: GI50 of O=c1cc(NNc2ccccc2)[nH]c(=O)[nH]1 ?
**A:** 19.8 µM (inactive)

**Q:** Item under review: CCC(=O)C1(N2CCOCC2)CCN(CCCC(=O)c2ccc(F)cc2)CC1 . Reported GI50?
**A:** > 100 µM (inactive)

* * *

test system: HOP-62; assay: NCI tumour cell line growth inhibition, 48 h
The source made the active and inactive calls. Rule as the data show it: active = GI50 up to about 1.1 µM and inactive = higher.
Pick from t for active, f for inactive when you respond.

**Q:** Would you mind telling me which call this test gave CCOC(=O)c1nc2ccccc2n(CC)c1=O ?
**A:** f

**Q:** Please state the recorded outcome for this compound: Cc1cc(S(=O)(=O)Nc2nncn2-c2ccc(Cl)cc2)c(S)cc1Cl
**A:** f

**Q:** # lookup: test call for O=C1c2cccc(NCCCNCCO)c2C(=O)c2cccc(NCCCNCCO)c21
**A:** f

**Q:** Assay outcome for CCOC(=O)C1C(=O)CN2CCc3c([nH]c4ccccc34)C12C(=O)OCC (stereo not drawn) : what was it?
**A:** f

**Q:** Dear colleague, could you share the recorded outcome for CCCC(=O)O[C@H]1C=C2C[C@@]34SS[C@]5(CC6=C[C@H](OC(C)=O)[C@@H]7O[C@@H]7[C@H]6N5C3=O)C(=O)N4[C@@H]2[C@H]2O[C@H]21 when you have a moment?
**A:** t

**Q:** Outcome logged for Cc1ccc2c(c1)CC1(C2)Cc2ccc(C)cc2C1=O (stereo not drawn) in this assay:
**A:** f

**Q:** Record request — test call for CC(C)OC(=O)C1=C(O)c2ccccc2S(=O)(=O)N1
**A:** f

**Q:** Short answer needed: outcome of this test for Cc1cc(NS(=O)(=O)c2ccc(Nc3c4ccccc4nc4c(C(=O)NCCO)cccc34)cc2)no1 ?
**A:** f

**Q:** What call does the record list for O=C(O)c1ccccc1C1c2ccc(Cl)cc2Oc2cc(Cl)ccc21 ?
**A:** f

**Q:** For CCC(=O)OC1CCn2c1nc1c2C(=O)C(C)=C(NC(C)=O)C1=O (stereo not drawn) , which call appears in the assay record?
**A:** f

**Q:** Test call, this compound: COC1=CC(=O)NCCN1
**A:** f

**Q:** Entry N#Cc1c(N)nc2c(C#N)c(N)cc3c2c1Oc1ccccc1-3 : call = ?
**A:** f

**Q:** Answer briefly: the call reported for c1ccc(-c2ccc(-c3cc4ccccc4[nH]3)cc2)cc1 in this assay.
**A:** f

**Q:** What did this assay record as the result for CCC12CCCN(Cc3ccccc3)C1c1c(n(C)c3ccccc13)CC2 (stereo not drawn) ?
**A:** f

**Q:** # lookup: test call for O=C(CCc1ccc(O)c(O)c1)OCCc1ccccc1
**A:** f

**Q:** Look up the recorded call for O=C1/C(=C/c2cccs2)N=C(c2ccccc2)N1C1Nc2cc3c(cc2S1)NC(N1C(=O)/C(=C/c2cccs2)N=C1c1ccccc1)S3 (stereo not drawn) in this test.
**A:** f

**Q:** Outcome? C[C@@]12CCC(=O)C=C1CC[C@H]1C2=CC[C@]2(C)C1CC[C@@]2(C)O (stereo partly drawn)
**A:** f

**Q:** Hi, sorry to bother you, what did the test record for Nc1nc2cc(Cl)ccc2n1N ?
**A:** f

**Q:** Record request — test call for C#CCOC(=O)C(=[N+]=[N-])C(=O)CC(C)C
**A:** f

**Q:** Give the logged outcome of this assay for the following compound: CCC(=O)C1(N2CCOCC2)CCN(CCCC(=O)c2ccc(F)cc2)CC1
**A:** f

**Q:** How did this test come out for O=C1CCCc2ccc3c(c21)CC1(Cc2ccccc2C1)C3 ?
**A:** f

**Q:** Tell me the assay call for CN(C)c1ccc2c3c(c(=O)oc2c1)CCC3 please.
**A:** f

**Q:** Could you kindly confirm the outcome this assay logged for CC1=CC(=O)NCCN1C ?
**A:** f

* * *

system: UACC-62; assay: NCI tumour cell line growth inhibition, 48 h
Active and inactive are the calls of the source. No stated cut-off is given here; in the data, active = GI50 up to about 1.1 µM and inactive = higher.
Could you please report measured GI50 for the items listed next?

**Q:** GI50 lookup needed for CCn1c(-c2ccc(C)cc2)cs/c1=N\C(P(=O)(O)O)P(=O)(O)O , thanks.
**A:** > 100 µM (inactive)

**Q:** // lookup GI50 for CCOC(=O)/C=C(/C(=O)OCC)n1ccc(=O)n(CC(=O)OCC)c1=O
**A:** 1.64 µM (inactive)

**Q:** // GI50 lookup, key: Cc1ccc(S(=O)(=O)NN=C2CCCCCCCCCCC2)cc1
**A:** > 100 µM (inactive)

**Q:** Item under review: O=c1c([Se]c2coc3ccccc3c2=O)coc2ccccc12 . Reported GI50?
**A:** 17.1 µM (inactive)

**Q:** Which GI50 reading was recorded for the compound O=C1c2n[nH]nc2C(=O)c2n[nH]nc21 ?
**A:** > 100 µM (inactive)

**Q:** Fill in: GI50 of O=C1O/C(=C(/Cl)c2cccc3ccccc23)c2ccccc21 is ___
**A:** > 100 µM (inactive)

**Q:** Name the reported GI50 value associated with the compound CCC(=O)OC1CCn2c1nc1c2C(=O)C(C)=C(NC(C)=O)C1=O (stereo not drawn)
**A:** 1.93 µM (inactive)

**Q:** Dear colleague, I am looking for the recorded GI50 of the following compound: COC(=O)C1CCC(=O)N1C(c1ccc2c(c1)OCO2)c1cc(OC)c(OC)c(OC)c1 (stereo not drawn)
**A:** > 100 µM (inactive)

* * *

system: MCF7; assay: NCI tumour cell line growth inhibition, 48 h
Calls of active or inactive are those of the source. Cut-off read from the data, not from the text of the source: active = GI50 up to about 1.1 µM and inactive = higher.
Return exactly one item of label 1 = active, label 0 = inactive

**Q:** Identify the outcome logged in this assay for the compound shown: Cc1cccc(/C=N/NC(=S)N(C)CCc2ccccn2)n1
**A:** label 1

**Q:** What classification did O=C(CC(=O)Nc1ccc(C(=O)O)cc1)Nc1ccc(C(=O)O)cc1 end up with in this test?
**A:** label 0

**Q:** Field: outcome | Entry: CC[C@@H]1CN(C)[C@H]2Cc3c([nH]c4ccccc34)C(=O)C[C@H]1C2C(=O)OC (stereo not given in full)
**A:** label 0

**Q:** Could you kindly confirm the outcome this assay logged for Cc1n[nH]c(C(F)(F)F)c1/N=N/N(C)C ?
**A:** label 0

**Q:** How was CNn1c(C)n[nH]c1=O classified in this test?
**A:** label 0

* * *

test system: M14; test: NCI tumour cell line growth inhibition, 48 h
Active and inactive are the calls of the source. Rule as the data show it: active = GI50 up to about 1.1 µM and inactive = higher. Starred links: 1 amine or outer side, 2 acyl side, 3 side chain; linkers in the order of their positions; H or OH if unused. Positions of bridges follow the written chain, without caps; N, C: chain ends. Non-standard residues stand in square brackets, D forms with d. Residues, ends and D or L forms follow the SMILES beside them. ξ: configuration not given here. X11 = CCC(C)C(N[*:1])C(O)CC(=O)O[C@H](C(=O)C(C)C(=O)[*:2])C(C)C; X10 = O=C([C@@H]1CC(O)CN1[*:1])[*:2]; NMeY = CN[C@@H](Cc1ccc(O)cc1)C(=O)O; ξNMeL = CNC(CC(C)C)C(=O)O; ξT = CC(O)C(N)C(=O)O
Select the matching outcome among TRUE for active, FALSE for inactive

**Q:** Field: outcome | Entry: COc1ccc2c(c1)CC1Cc3cc(OC)c(OC)cc3CN1CC2 (stereo unspecified)
**A:** FALSE

**Q:** Tell me the recorded outcome of this test for CCOC(=O)NC(=O)c1cn(CCCOC(=O)CCCCCCCCC(=O)OCCCn2cc(C(=O)NC(=O)OCC)c(=O)[nH]c2=O)c(=O)[nH]c1=O .
**A:** FALSE

**Q:** Could you please tell me the result logged for CC1(C)OCC[C@@H]1[Si](C)(C)C in this assay?
**A:** FALSE

**Q:** GET /call?item= O=c1cc(-c2ccccc2)[nH]c2cccc(S)c12 returns the recorded outcome of this test.
**A:** TRUE

**Q:** Identify the outcome logged in this assay for the molecule shown: CCCCCCCCCCCCCCCC(=O)N(CCCCCCCCCCC(=O)O)CC(O)C(O)C(OC1OC(CO)C(O)C(O)C1O)C(O)CO (stereo unspecified)
**A:** FALSE

**Q:** For Cc1ccc(C(=O)Cn2c(C(=O)/C=C/c3cccs3)nc3ccccc32)cc1 , what call appears in the results of this test?
**A:** FALSE

**Q:** What outcome does the record of this test show for O=C1c2ccccc2C(=O)c2cc(/N=N/c3c(O)ccc4ccccc34)ccc21 ?
**A:** FALSE

**Q:** Can you look up the reported call for CCOC(=O)C1=C(c2ccccc2)N(C)c2ccccc2S1 for me?
**A:** FALSE

**Q:** Recorded call for Cc1cccc(N/C(Sc2ccccc2)=C(/C(Cl)=C(Cl)Cl)[N+](=O)[O-])c1 ?
**A:** FALSE

**Q:** State the result this test recorded for Nc1nc(=O)n(C2CC(O)C(O)C(CO)O2)cc1F (stereo unspecified) .
**A:** FALSE

**Q:** Name the outcome recorded for CN(/N=C/c1cccc2cccnc12)c1ccc([N+](=O)[O-])cc1[N+](=O)[O-] in the assay.
**A:** FALSE

**Q:** Give the logged outcome of this assay for the following molecule: O=C1c2n[nH]nc2C(=O)c2n[nH]nc21
**A:** FALSE

**Q:** Write down the call the test reported for this molecule. Item: N#Cc1ccc(-c2nc3c(N)nc(-c4ccccc4)nc3o2)cc1
**A:** FALSE

**Q:** GET /call?item= N#CN=C(N(Cc1ccccc1)Cc1ccccc1)N(Cc1ccccc1)Cc1ccccc1 returns the recorded outcome of this test.
**A:** FALSE

**Q:** What call does the record list for CC12CCC(O)CC1CCC1C2CCC2(C)C(C(=O)CC(O)C(F)(F)F)CCC12 (stereo unspecified) ?
**A:** FALSE

**Q:** Look up the recorded call for O=C(O)c1ccccc1-c1ccccc1C(=O)Nc1ccc2c(c1)Cc1cc(F)ccc1-2 in this test.
**A:** FALSE

**Q:** Please share the test call associated with c1cc2n(n1)CCN2 .
**A:** FALSE

**Q:** So what was the verdict on COC(=O)C(=O)C(C(=O)OC)C(=O)C(=O)Nc1cc(Cl)c(Cl)cc1Cl (stereo unspecified) in this test?
**A:** FALSE

**Q:** Test call, this molecule: CONC(C)=O
**A:** FALSE

**Q:** Which outcome was entered for the molecule CCC(C)C1NC(=O)C(NC(=O)C(CC(C)C)N(C)C(=O)[C@@H]2CC(O)CN2)C(C)OC(=O)[C@H](Cc2ccc(OC)cc2)N(C)C(=O)[C@@H]2CCCN2C(=O)[C@H](CC(C)C)NC(=O)C(C)C(=O)[C@H](C(C)C)OC(=O)CC1O (stereo partly specified) (H-[X10][ξNMeL][ξT][X11]LP[NMeY](Me); ester 3-C) in this test?
**A:** TRUE

**Q:** What outcome does the record of this test show for CNNC(=NS(=O)(=O)c1cc(C#N)c(NNC)cc1S)NNC ?
**A:** FALSE

**Q:** Tell me the recorded outcome of this test for CC1=C2c3c(C)ccc4ccc(C)c(c34)C2(O)C(C)C1=O (stereo unspecified) .
**A:** FALSE

**Q:** What call does the record list for C=C1CC(C#N)(C#N)[C@@H]2CC3CCCC3[C@H]12.C=C1CC(C#N)(C#N)[C@H]2C3CCCC3C[C@@H]12 (stereo partly specified) ?
**A:** FALSE

**Q:** Can you look up the reported call for CCOC(=O)c1c(-c2ccccc2)c(C(OC(c2ccccc2)c2c(-c3ccccc3)c(C(=O)OCC)n3ccccc23)c2ccccc2)c2ccccn12 (stereo unspecified) for me?
**A:** FALSE

**Q:** Identify the outcome logged in this assay for the molecule shown: O=C1NC(NNc2ccccc2)=N/C1=C\c1ccccc1O
**A:** FALSE

**Q:** Outcome logged for O=C1CCCc2ccc3c(c21)CC1(Cc2ccccc2C1)C3 in this assay:
**A:** FALSE

**Q:** Hello, I am checking results. What call was entered for CSC1=Nc2ccccc2N(C)c2c1c(-c1ccccc1)nn2C ?
**A:** FALSE

**Q:** Which outcome did this test record for the molecule CC(Br)C(=O)NC(CO)C(=O)O (stereo unspecified) ?
**A:** FALSE

**Q:** Please let me know the test result on file for Clc1ccc(C2=CCN3CC=C(c4ccc(Cl)cc4)C23)cc1 .
**A:** FALSE

**Q:** # lookup: test call for Cc1ccc2c(=O)c(C(=O)Nn3c(C)csc3=S)c[nH]c2n1
**A:** FALSE

**Q:** GET /call?item= CCOC(=O)c1cc(-c2ccc(-c3cc(C(=O)OCC)c(C#N)c(N)c3C#N)cc2)c(C#N)c(N)c1C#N returns the recorded outcome of this test.
**A:** FALSE
